Listed next: entries and their corresponding MIC.
# Tested on: S. aureus ATCC 3798
# METHOD SUMMARY: MIC by microdilution, S. aureus ATCC 3798
# Assay type: cell-based
# PROTOCOL CONDITIONS: Staphylococcus aureus, ATCC3798; S. aureus ATCC 3798, multiresistant incl. ciprofloxacin, levofloxacin; read-out: MIC
Field format: number, assumed mg/L, no unit text.

Answered examples (3):
compound="OCCCCn1cc([C+](c2cn(CCCCO)c3ccccc23)c2cn(CCCCO)c3ccccc23)c2ccccc21.[Cl-] [8c]" measurement_label=MIC quantitative_result=16
compound="OCCn1cc([C+](c2cn(CCO)c3ccccc23)c2cn(CCO)c3ccccc23)c2ccccc21.[Cl-] [8a]" measurement_label=MIC quantitative_result=32
compound="OCCCCCn1cc([C+](c2cn(CCCCCO)c3ccccc23)c2cn(CCCCCO)c3ccccc23)c2ccccc21.[Cl-] [8d]" measurement_label=MIC quantitative_result=2

### Prompt Returns the measured MIC for the input compound. Input: OCCCn1cc([C+](c2cn(CCCO)c3ccccc23)c2cn(CCCO)c3ccccc23)c2ccccc21.[Cl-] [8b]
### Response 16

### Prompt Returns the measured MIC for the input compound. Input: C[C@H]1COc2c(N3CCN(C)CC3)c(F)cc3c(=O)c(C(=O)O)cn1c23 [Lf, levofloxacin, reference compound]
### Response 32

### Prompt Returns the measured MIC for the input compound. Input: OCCCCCCn1cc([C+](c2cn(CCCCCCO)c3ccccc23)c2cn(CCCCCCO)c3ccccc23)c2ccccc21.[Cl-] [8e]
### Response 0.5

====

# Test system: E. faecium 569
# METHOD SUMMARY: MIC by microdilution, E. faecium 569
# Assay type: cell-based, Enterococcus faecium
# PROTOCOL CONDITIONS: Enterococcus faecium; E. faecium 569, resistant to cefuroxime, clindamycin, gentamycin, vancomycin, doxycycline; read-out: MIC
MEASUREMENT LABEL: MIC (µg/mL)
Field format: number, assumed µg/mL, no unit text.

Answered examples (2):
molecule="C[C@H]1COc2c(N3CCN(C)CC3)c(F)cc3c(=O)c(C(=O)O)cn1c23 [Lf, levofloxacin, reference compound]" measurement_label=MIC quantitative_result=1
molecule=OCCCn1cc([C+](c2cn(CCCO)c3ccccc23)c2cn(CCCO)c3ccccc23)c2ccccc21.[Cl-] measurement_label=MIC quantitative_result=32

// moving on: another record for MIC
### Prompt Returns the measured MIC for the input molecule. Input: "OCCCCCn1cc([C+](c2cn(CCCCCO)c3ccccc23)c2cn(CCCCCO)c3ccccc23)c2ccccc21.[Cl-]"
### Response 8

====

# Test system: S. epidermidis 533
# METHOD SUMMARY: MIC by microdilution, S. epidermidis 533
# Assay type: cell-based
# PROTOCOL CONDITIONS: Staphylococcus epidermidis; S. epidermidis 533, resistant to gentamicin; read-out: MIC
# Procedure: Compounds were tested against Gram-positive and Gram-negative bacteria, including sensitive or drug resistant strains from American Type Culture Collection (ATCC), as well as resistant clinical isolates from the culture collection of the Laboratory for Control of Hospital Infections (Sechenov University, Moscow, Russia). […]
Listed next: entries and their corresponding MIC.
Field format: number, assumed µg/mL, no unit text.

Answered examples (5):
molecule=OCCn1cc([C+](c2cn(CCO)c3ccccc23)c2cn(CCO)c3ccccc23)c2ccccc21.[Cl-] measurement_label=MIC unit_annotation=µg/mL quantitative_result=32
molecule="C[C@H]1COc2c(N3CCN(C)CC3)c(F)cc3c(=O)c(C(=O)O)cn1c23 [Lf, levofloxacin, reference compound]" measurement_label=MIC unit_annotation=µg/mL quantitative_result=0.5
molecule=OCCCCCCn1cc([C+](c2cn(CCCCCCO)c3ccccc23)c2cn(CCCCCCO)c3ccccc23)c2ccccc21.[Cl-] measurement_label=MIC unit_annotation=µg/mL quantitative_result=0.5
molecule=OCCCCn1cc([C+](c2cn(CCCCO)c3ccccc23)c2cn(CCCCO)c3ccccc23)c2ccccc21.[Cl-] measurement_label=MIC unit_annotation=µg/mL quantitative_result=16
molecule=OCCCCCn1cc([C+](c2cn(CCCCCO)c3ccccc23)c2cn(CCCCCO)c3ccccc23)c2ccccc21.[Cl-] measurement_label=MIC unit_annotation=µg/mL quantitative_result=1

// moving on: another record for MIC
### Prompt Returns the measured MIC for the input molecule. Input: "OCCCn1cc([C+](c2cn(CCCO)c3ccccc23)c2cn(CCCO)c3ccccc23)c2ccccc21.[Cl-]"
### Response 32
